# TARGET_OF_ASSAY: human recombinant EpCAM antigen (extracellular domain, residues 1 to 265, fused with 6×His tag and Avi-tag) (human) (UniProt P16422)
# Sequence (P16422 24-265 limits assumed, form in doubt): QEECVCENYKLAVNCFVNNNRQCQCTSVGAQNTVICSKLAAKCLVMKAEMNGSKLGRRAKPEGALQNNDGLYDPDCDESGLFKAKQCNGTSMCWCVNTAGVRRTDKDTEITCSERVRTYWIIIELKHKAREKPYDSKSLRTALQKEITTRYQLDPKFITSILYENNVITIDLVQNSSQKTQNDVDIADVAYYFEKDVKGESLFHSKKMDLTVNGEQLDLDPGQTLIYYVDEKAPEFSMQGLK
# PROCEDURE_DETAILS: SPR (Biacore 2000), EpCAM on CM5 chip (about 211 RU), antibody 6.25-100 nM as analyte
The threshold is inclusive: koff of exactly 0.002 s⁻¹ counts as t; values below receive f.

BINDER | CATEGORY_LABEL
epRas03 (4-12) (antibody, part only; not given: RT22 heavy chain, light constant, V domains shown, not shown: another chain or arm of the molecule; a dimerising Fc or GST, chain 1: disulfide bond Cys5-Cys10 closes the cyclic peptide) VL: RNLLCLRRICWPMGSSSNDIQMTQSPSSLSASVGDRVTITCKSSQSLLNSRDGKNYLAWYQQKPGKAPKLLIYWASTRESGVPSRFSGSGSGTDFTLTISSLQPEDFATYFCQQYWYWMYTFGQGTKVEIK | f
epRas03 (4-27) (antibody, part only; not given: RT22 heavy chain, light constant, V domains shown, not shown: another chain or arm of the molecule; a dimerising Fc or GST, chain 1: disulfide bond Cys5-Cys10 closes the cyclic peptide) VL: RHLWCLGRLCWPMGSSSNDIQMTQSPSSLSASVGDRVTITCKSSQSLLNSRDGKNYLAWYQQKPGKAPKLLIYWASTRESGVPSRFSGSGSGTDFTLTISSLQPEDFATYFCQQYWYWMYTFGQGTKVEIK | t
epRas03 (4-8) (antibody, part only; not given: RT22 heavy chain, light constant, V domains shown, not shown: another chain or arm of the molecule; a dimerising Fc or GST, chain 1: disulfide bond Cys5-Cys10 closes the cyclic peptide) VL: RNLLCIGNLCWPMGSSSNDIQMTQSPSSLSASVGDRVTITCKSSQSLLNSRDGKNYLAWYQQKPGKAPKLLIYWASTRESGVPSRFSGSGSGTDFTLTISSLQPEDFATYFCQQYWYWMYTFGQGTKVEIK | t
epRas03 (4-19) (antibody, part only; not given: RT22 heavy chain, light constant, V domains shown, not shown: another chain or arm of the molecule; a dimerising Fc or GST, chain 1: disulfide bond Cys5-Cys10 closes the cyclic peptide) VL: RNLRCIGNICWSMGSSSNDIQMTQSPSSLSASVGDRVTITCKSSQSLLNSRDGKNYLAWYQQKPGKAPKLLIYWASTRESGVPSRFSGSGSGTDFTLTISSLQPEDFATYFCQQYWYWMYTFGQGTKVEIK | f
epRas03 (4-13) (antibody, part only; not given: RT22 heavy chain, light constant, V domains shown, not shown: another chain or arm of the molecule; a dimerising Fc or GST, chain 1: disulfide bond Cys5-Cys10 closes the cyclic peptide) VL: RNLQCIRNICWSMGSSSNDIQMTQSPSSLSASVGDRVTITCKSSQSLLNSRDGKNYLAWYQQKPGKAPKLLIYWASTRESGVPSRFSGSGSGTDFTLTISSLQPEDFATYFCQQYWYWMYTFGQGTKVEIK | f
